# TARGET_OR_SYSTEM: T1, human IL-1RAcP on 293T/17-FR cells (human, UniProt Q9NPH3 21-570)
# T1 sequence (looked up): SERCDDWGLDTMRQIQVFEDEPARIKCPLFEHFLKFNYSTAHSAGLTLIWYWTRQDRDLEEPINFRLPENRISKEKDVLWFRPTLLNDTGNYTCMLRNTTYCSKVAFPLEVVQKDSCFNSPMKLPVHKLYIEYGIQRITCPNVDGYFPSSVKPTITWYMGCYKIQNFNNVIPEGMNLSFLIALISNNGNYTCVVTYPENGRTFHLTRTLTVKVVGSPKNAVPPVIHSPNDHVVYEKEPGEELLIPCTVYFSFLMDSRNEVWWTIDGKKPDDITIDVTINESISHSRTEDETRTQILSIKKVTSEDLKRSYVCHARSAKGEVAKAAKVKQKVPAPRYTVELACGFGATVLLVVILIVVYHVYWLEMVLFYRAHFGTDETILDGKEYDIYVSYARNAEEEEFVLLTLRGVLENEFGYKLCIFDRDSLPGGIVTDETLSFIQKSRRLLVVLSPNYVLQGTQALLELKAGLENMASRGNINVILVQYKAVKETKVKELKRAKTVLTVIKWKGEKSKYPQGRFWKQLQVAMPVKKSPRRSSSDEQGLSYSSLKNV
# TEST_NAME: cell-based or functional assay
Some binders, each annotated with its measured functional reporter gene assay (% inhibition), 1 µg/mL mAb.
RESULT_TYPE: functional reporter gene assay (% inhibition), 1 µg/mL mAb (%)

BINDER	OBSERVED_MEASUREMENT
P013.S.01.B.D06 (antibody, V domains shown, rabbit monoclonal antibody; also called P013.A.00029.D02) VH: QSLEESGGDLVKPGASLTLTCTASGFSFSSSYYMCWVRQAPGKGLEWIACIYAGSSGVTYYASWAKGRFTISDTSSTTVTLQMTSLTAADTATYFCASETDGNYFNLWGPGTLVTVSS VL: ALVMTQTPSPVSAAVGGTVTINCQASEDIYSNLAWFQQKPGQPPKLLIYRASTLASGVPSRFSGSGSGTEFTLTISGLQSDDAATYYCLGVYTYSTDIHAFGGGTEVVVK	96
P013.S.01.B.D02 (antibody, V domains shown, rabbit monoclonal antibody; also called P013.A.00022.E06) VH: LEQSGGGAEGGLVKPGGSLELCCKASGFSLTTNYWICWVRQAPGKGLEWIGCIYANSVGSTYYASWVNGRFTLSRDIDQSTGCLQLNSLTAADTAMYYCARVDPGYSFDAFDPWGPGTLVTVSS VL: ALVMTQTPSPVSAAVGGTVTINCQASEDIYSNLAWFQQKPGQPPKLLIYRASTLASGVPSRFSGSGSGTEFTLTISALQSDDAATYYCLGVRTYFNTLNNSFGGGTEVVVK	88
P013.S.01.B.G05 (antibody, V domains shown, rabbit monoclonal antibody; also called P013.A.00088.C10) VH: LEQSGGGAEGGLVKPGGSLELCCKASGFSLSSAYWICWVRQAPGKGLEWVGCIYADSSSITYYASWVNGRFTLSRDIDQSTGCLQLNSLTAADTAMYYCARDYGGSGYNFNLWGQGTLVTVSS VL: ALVMTQTPSPVSAAVGGTVTISCQASEDIYSNLAWYQQKRGQPPKLLIYYASTLASGVPSRFSGSGSGTEFTLTISGLQSDDAATYYCLGVCTYINANGWDNAFGGGTEVVVK	82
